Tested on: HCT-15 colon
procedureSummary: NCI-60 one-dose screen, 48 h
cond: 10 µM unless noted
This is part of a sample that, as a whole, favours compounds with a hit. Of some 83,000 tested, about 20% had one in any assay. Calls of active or inactive are those of the source. How the source made its calls: active means growth percent below 10; inactive means the rest.
Outcomes: active, inactive

| compound | discreteLabel |
| --- | --- |
| Cc1cccc(Cl)c1NC(=O)c1cnc(Nc2cc(N3CCOCC3)cc(S(C)(=O)=O)c2)s1 | inactive |
| COc1cc2c(cc1OCCCCN1CCN(CC(=O)Nc3ccc(Cl)cc3C(=O)c3ccccc3Cl)CC1)N=CC1CCCN1C2=O (stereo not drawn) | active |
| C=CC(=O)Nc1cccc(Nc2nc(Nc3ccc(N4CCN(C(C)=O)CC4)cc3OC)ncc2C(F)(F)F)c1 | active |
| CC[C@@H]1C(=O)N(C)c2cnc(Nc3ccc(C(=O)NC4CCC(N5CCN(CC6CC6)CC5)CC4)cc3OC)nc2N1C(C)C (stereo partly drawn) | active |
| C=CC(=O)Nc1cc2c(Nc3ccc(F)c(Cl)c3)ncnc2cc1C#CC(C)(C)N1CCN(C)CC1 | active |
| Cn1ncc(Cl)c1-c1cc(C(=O)N[C@H](CN)Cc2cccc(F)c2)sc1Cl | inactive |
| C=C1C(=O)O[C@H]2[C@H]1CC/C(C=Nc1c(N)cc(C(F)(F)F)cc1C(F)(F)F)=C\CC[C@@]1(C)O[C@@H]21 | active |
| Cc1cn(-c2cc(NC(=O)c3ccc(C)c(Nc4nccc(-c5cccnc5)n4)c3)cc(C(F)(F)F)c2)cn1 | inactive |

----------
Recorded growth by entry
Tested on: DU-145 prostate
procedureSummary: NCI-60 one-dose screen, 48 h (100 = growth as untreated, 0 = no growth, -100 = all killed)
cond: 10 µM unless noted
Compounds without any hit were thinned out: in the full panel of roughly 83,000, 20% have a hit.

| compound | growth, % |
| --- | --- |
| CC1(COc2ccc3c(c2)ncn3-c2ccc3cccc(N4CCC(N)CC4)c3n2)COC1 | 15.9 |
| CC(N)C(Cc1ccc(Cl)cc1)c1ccc(Cl)cc1 (stereo not given) | 61 |
| O=C1OCC2=C1C(c1cccc(F)c1)c1cc3c(cc1N2CCO)OCCO3 (stereo not given) | 14.3 |
| COCc1c(-c2ccc(NC(=O)Nc3cc(C(F)(F)F)ccc3F)c(F)c2)c2c(N)ncnn2c1CN1CCOCC1 | -4 |
| COc1cccc2cc(-c3nc(C4CCC(C(=O)O)CC4)n4ncnc(N)c34)[nH]c12 (stereo not given) | 19.2 |
| COc1cc2ncnc(Nc3cccc(Cl)c3F)c2cc1OC(=O)N1CCN(C)C[C@H]1C | 65 |
| Cc1c(CN2CCN(C(=O)[C@H](C)O)CC2)sc2c(N3CCOCC3)nc(-c3cnc(N)nc3)nc12 | 8.38 |
| Clc1ccc2c(NCCCNCc3ccc4c(c3)OCO4)ccnc2c1 | 58.1 |
| CCC1(/C=N/NC(N)=S)NC(=O)NC1=O (stereo not given) | 112 |
| CCCNC(=O)c1cn2ncnc(Nc3cc(C(=O)NC4CC4)ccc3C)c2c1C | 103 |
| Cc1cc(Nc2ncnc3ccc(NC4=NC(C)(C)CO4)cc23)ccc1Oc1ccn2ncnc2c1 | 35.2 |
| O=C(Cc1ccccc1)Nc1nnc(NC2CCN(c3nnc(NC(=O)Cc4ccccc4)s3)CC2)s1 | 91.7 |
| C=CC(=O)N1CCC[C@@H](n2nc(-c3ccc(Oc4ccccc4)cc3)c3c(N)ncnc32)C1 | 47.9 |
| O=c1sn(-c2cccc3ccccc23)c(=O)n1Cc1ccccc1 | 108 |
| COCC(=O)NC/C=C/c1ccc2ncnc(Nc3ccc(Oc4ccc(C)nc4)c(C)c3)c2c1 | 30.7 |
| O=C(Nc1cnn2ccc(N3CCC[C@@H]3c3cc(F)ccc3F)nc12)N1CC[C@H](O)C1 | 110 |
| C[C@H]1Oc2cc(cnc2N)-c2c(nn(C)c2C#N)CN(C)C(=O)c2ccc(F)cc21 | 91.9 |
| CCc1ccc(/C=C/c2ccc(O)c3ncccc23)[n+](C)c1 | 42.8 |
| CNC(=O)c1cnc(C)nc1-c1cc(C(C)(C)C)c(O)c(C(C)(C)C)c1 | 99.8 |
| COC(=O)C1=C(C(=O)OC)C23C=C(C)C1C2=C(C)C1(CC1)[C@@](C)(O)C3=O (stereo not given in full) | 2.57 |

----------
Test system: K-562 leukemia
procedureSummary: NCI-60 one-dose screen, 48 h
cond: 10 µM unless noted
The panel holds about 83,000 compounds, 20% with a hit somewhere; the sample as a whole holds those more often. Activity calls are given as the source filed them. The calls were made as follows: active = growth percent below 10; inactive = the rest.
Outcomes: active, inactive

| compound | testTarget | discreteLabel |
| --- | --- | --- |
| CN(C)C1CCN(C(=O)c2ccc(NC(=O)Nc3ccc(-c4nc(N5CCOCC5)nc(N5CCOCC5)n4)cc3)cc2)CC1 | K-562 leukemia | inactive |
| CCCCCCCCCNCCCCCCCCC | K-562 leukemia | active |
| CCCCN1CCCC[C@@H]1C(=O)N[C@H](C(=O)N(C)[C@H](CCc1nc(C(=O)N[C@@H](Cc2ccccc2)C[C@H](C)C(=O)OC)cs1)C(C)C)C(C)C | K-562 leukemia | inactive |
| CCN1CCN(CCCN(C[C@H]2Cc3ccccc3CN2)[C@H]2CCCc3cccnc32)CC1 | K-562 leukemia | inactive |
| CN1[C@@H]2CC[C@H]1/C(=C\c1ccccc1)C1=C2[C@@H](c2ccccc2)C(C#N)=C(N)O1 | K-562 leukemia | inactive |
| Cc1ccsc1C(NC(=O)c1ccccc1)c1cc(Cl)c2cccnc2c1O (centres undefined) | K-562 leukemia | inactive |
| Nc1c2c(c(O)c3c1=C(CO)C=N3)=NCCS2 | K-562 leukemia | active |
| CNC(=O)c1cc(Oc2ccc(NC(=O)Nc3cc(C(C)(C)C)nn3-c3ccc4ncccc4c3)c(F)c2)ccn1 | K-562 leukemia | active |
| COc1ccc2c(CCCC(c3ccccc3)c3ccccc3)c3[n+](cc2c1OC)CCc1cc2c(cc1-3)OCO2 | K-562 leukemia | active |
| Oc1ccc(C(c2ccc(O)cc2)C(Cl)(Cl)Cl)cc1 | K-562 leukemia | inactive |
| CNC(=O)c1cc(Oc2cccc3nc(Nc4ccc(Cl)c(F)c4)ccc23)ccn1 | K-562 leukemia | inactive |
| CC1(C=O)NC(=O)NC1=O (centres undefined) | K-562 leukemia | inactive |
| C[C@@]1(C(=O)Nc2ccc(F)nc2)CCCN1c1nc(Nc2cc(C3CC3)[nH]n2)c2cccn2n1 | K-562 leukemia | inactive |
| Cc1cccc(NC(=O)[C@@H]2c3ccccc3C(=O)N(c3ccc(Cl)cc3)[C@H]2c2ccc(Cl)cc2)n1 | K-562 leukemia | inactive |
| Cc1ccc(NC(=O)c2ccc(CN3CC[C@H](N(C)C)C3)c(C(F)(F)F)c2)cc1Nc1nccc(-c2cncnc2)n1 | K-562 leukemia | active |
| OCCNC(=S)Nc1ccc(-c2nc(N3C[C@H]4CC[C@@H](C3)O4)c3cccn3n2)cc1 | K-562 leukemia | inactive |
| Cc1c(N)ccc(-c2ccc(N)c(C)c2S(=O)(=O)O)c1S(=O)(=O)O | K-562 leukemia | inactive |
| COc1cc(-c2nc(C(=O)NCC(=O)O)nn2-c2ccc(Cl)cc2)cc(OC)c1OC | K-562 leukemia | inactive |
| COc1ccc(/C(C)=C(\c2ccc(Cl)cc2)c2ccc(OCCN3CCCCCC3)cc2)cc1 | K-562 leukemia | inactive |

----------
System: OVCAR-4 ovarian
procedureSummary: NCI-60 one-dose screen, 48 h (100 = growth as untreated, 0 = no growth, -100 = all killed)
cond: 10 µM unless noted
About 83,000 compounds went through this panel and 20% of them were active in at least one assay; those are over-represented in the sample as a whole.
Recorded growth by entry

| compound | growth / % |
| --- | --- |
| O=c1nc2c(-c3nc4ccccc4s3)n[nH]n2c2sc3c(c12)CCCC3 | 115 |
| CCc1cc2c(c3ccc(C(=O)CBr)cc13)CCCC2 | 110 |
| O=c1[nH]c(N2CCOCC2)nc2scc(-c3ccccc3)c12 | 101 |
| CN(C)CCn1c(=O)c2c3cc4c(cc3n(CCN(C)C)c2c2ccc(Cl)cc21)OCO4 | 61.3 |
| Cc1nn(-c2nc3ccccc3[nH]2)c2c1C(c1ccc(O)cc1)CC(=O)N2 (configuration not stated) | 112 |
| O=C(c1ccc(F)c(F)c1Nc1ccc(I)cc1F)N1CC(O)([C@@H]2CCCCN2)C1 | 27.8 |
| CCN1CCN(c2cc(C)nc(N(CCCNc3ccnc4cc(Cl)ccc34)Cc3ccc4c(c3)OCO4)n2)CC1 | 27.7 |

----------
Test system: UACC-257 melanoma
procedureSummary: NCI-60 one-dose screen, 48 h
cond: 10 µM unless noted
Compounds without any hit were thinned out: in the full panel of roughly 83,000, 20% have a hit. The source made the active and inactive calls. How the source made its calls: active means growth percent below 10; inactive means the rest.
Outcomes: active, inactive

| cpdSmiles | discreteLabel |
| --- | --- |
| CCN(CC)CCOc1ccc(/C(=C(\C)c2ccc(Cl)cc2)c2ccc(Cl)cc2)cc1 | inactive |
| CC(=O)NCC(=O)N1[C@@H]2CC[C@H]1c1ccc(Nc3ncc(C(F)(F)F)c(NC4CCC4)n3)cc12 | inactive |
| Cc1cc(-c2cc(OC(=O)c3ccccc3)ccc2Cl)cc2nnc(Nc3ccc(OCCN4CCCC4)cc3)nc12 | inactive |
| CNC(=O)c1nn(C)c2c1C(C)(C)Cc1cnc(Nc3ccc(N4CCN(C)CC4)cc3)nc1-2 | active |
| CCOc1cc2ncc(C#N)c(Nc3ccc(F)c(Cl)c3)c2cc1NC(=O)/C=C/CN(C)C | active |
| CS(=O)(=O)N1CCc2c(-c3cnc(N)nc3)nc(N3CCOCC3)nc21 | active |
| Cc1nc(N)sc1-c1ccnc(Nc2ccc(N3CCOCC3)cc2)n1 | inactive |
| O=C(Cc1ccc(/C=C/C(=O)c2ncc[nH]2)cc1)Nc1ccc(S(F)(F)(F)(F)F)cc1 | inactive |
| Cn1ncc(Cl)c1-c1cc(C(=O)N[C@H](CN)Cc2cccc(F)c2)sc1Cl | active |
